molecular target: PARD3_3, Q8TEW0; assay: holdup assay; design: key: below the threshold = too weak to quantify, mostly under pKd 3.1 to 4; details: plain residues with an end cap or a label only (N-terminal biotin on a linker: ahx)
Sequence (Q8TEW0 582-685): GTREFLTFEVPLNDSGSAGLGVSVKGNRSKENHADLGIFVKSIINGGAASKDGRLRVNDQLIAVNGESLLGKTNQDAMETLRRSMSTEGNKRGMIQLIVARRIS

{"columns": ["Binder", "pKd"],
 "data": [
  ["AKPQPVDSWV [ARVCF, O00192]", 4.05],
  ["KEYDDELTFF [USH1C, Q9Y6N9]", 5.09],
  ["HSATSVHTSV [MTMR1, Q13613]", 3.73],
  ["VNENQKEYFF [CNTNAP4, Q9C0A0]", 5.32]
]}
